- experimental.target: human NOX4 (Homo sapiens, UniProt Q9NPH5)
- Construct: The full-length human NOX4 (NM_016931.3) transcript was cloned
- Sequence (Q9NPH5 1-578): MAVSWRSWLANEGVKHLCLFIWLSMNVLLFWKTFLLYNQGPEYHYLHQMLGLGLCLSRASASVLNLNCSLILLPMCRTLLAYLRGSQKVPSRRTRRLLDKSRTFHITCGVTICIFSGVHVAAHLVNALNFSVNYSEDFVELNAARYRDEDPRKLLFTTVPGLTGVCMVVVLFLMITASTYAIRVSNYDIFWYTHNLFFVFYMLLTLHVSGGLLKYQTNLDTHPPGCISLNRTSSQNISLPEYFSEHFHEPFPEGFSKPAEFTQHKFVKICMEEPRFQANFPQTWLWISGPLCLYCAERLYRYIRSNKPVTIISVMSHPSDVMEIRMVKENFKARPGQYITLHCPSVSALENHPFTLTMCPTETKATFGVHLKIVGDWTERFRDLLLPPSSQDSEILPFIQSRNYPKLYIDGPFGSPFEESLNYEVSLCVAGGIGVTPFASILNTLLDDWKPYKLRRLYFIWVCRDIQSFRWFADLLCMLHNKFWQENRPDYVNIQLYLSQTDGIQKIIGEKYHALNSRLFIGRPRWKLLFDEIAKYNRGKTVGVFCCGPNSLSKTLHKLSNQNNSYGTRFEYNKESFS
- Sequence (P13498 1-195 partner): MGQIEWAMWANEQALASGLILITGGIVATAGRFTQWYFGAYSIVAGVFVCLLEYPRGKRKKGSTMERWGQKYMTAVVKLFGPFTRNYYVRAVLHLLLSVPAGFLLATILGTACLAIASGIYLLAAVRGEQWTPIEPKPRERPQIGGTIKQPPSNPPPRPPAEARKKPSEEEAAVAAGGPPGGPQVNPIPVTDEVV
- measurement.description: Amplex Red activity assay (cellular H2O2 formation in hNOX4 T-REx-293 cells)
- cond: tet-induced 24 h, extracellular H2O2 by Amplex Red, 60 min 25° C., geometric mean if determined several times
pIC50: −log10 of the molar value.
Lab note: compare pIC50 against 6. Equal or greater, write Criterion met. Smaller, write Criterion not met.

// known answers, use as guide
compound="CN(C)CC1CCN(c2nc3cc(NC(=O)c4ccc5c(c4)CCO5)ccc3s2)C1 (stereo not drawn)" experimental_target="human NOX4 (Homo sapiens, UniProt Q9NPH5)" classification="Criterion not met"
compound=CN(C)CCN(C)c1nc2cc(NC(=O)c3ccc4c(c3)CCO4)ccc2o1 experimental_target="human NOX4 (Homo sapiens, UniProt Q9NPH5)" classification="Criterion not met"
compound=O=C(Nc1ccc2sc(N3CCC(O)CC3)nc2c1)c1ccc2c(c1)CCO2 experimental_target="human NOX4 (Homo sapiens, UniProt Q9NPH5)" classification="Criterion not met"
compound=O=C(Nc1ccc2oc(N3CCC(F)(F)CC3)nc2c1)c1ccc2c(c1)CCO2 experimental_target="human NOX4 (Homo sapiens, UniProt Q9NPH5)" classification="Criterion met"
compound=CN1CCOc2ccc(C(=O)Nc3ccc4oc(N5CCC56CCC6)nc4c3)cc21 experimental_target="human NOX4 (Homo sapiens, UniProt Q9NPH5)" classification="Criterion not met"

Query: Could you tell me if the measured pIC50 of O=C(Nc1ccc2oc(N3CCCC3)nc2c1)c1ccc2c(c1)CCCO2 reaches 6 or more?
Response: Criterion not met

Query: Could you please find out whether CN(C)C1CN(c2nc3cc(NC(=O)c4ccc5c(c4)CCO5)ccc3o2)C1 has pIC50 that meets 6 or exceeds it?
Response: Criterion not met

Query: Textbook exercise: given the entry O=C(Nc1ccc2oc(N3CCC34COC4)nc2c1)c1ccc2c(c1)OCO2 , state whether its pIC50 is greater than or equal to 6.
Response: Criterion met
